# experimental-system: DNA polymerase eta (Homo sapiens)
# protocol-summary: qHTS for Inhibitors of Polymerase Eta
# condition-summary: recombinant Pol eta, fluorescent DNA replication assay; series mostly up to 114 µM
Out of some 390,000 compounds screened, about 4,700 (1.2%) were called active. About 4% were inconclusive and are not listed. Calls follow the shape of the dose curve; as a rule, active = well fitted inhibition curve with a large enough effect; inconclusive = small, poorly fitted or top-dose-only effect, or another doubt; inactive = no such curve, though single readings can be large or run the other way. This excerpt belongs to a sample that is enriched for actives.
Respond with a class label; see active, inactive

Below are worked cases with known answers.
Q. Called result for `CCCNC(=O)CCC(=O)N1Cc2ccccc2Oc2ncccc21`
A. inactive

Q. Called result for O=C1CC(c2nnc(Cc3ccc(Cl)cc3)o2)CN1c1ccccc1 (stereo unspecified)
A. inactive

Q. Called result for `CC1CCN(C(=O)CSc2nnc(-c3ccco3)n2N)CC1`
A. inactive

Q. Called result for `Cc1ccc(N(Cc2cc(=O)[nH]c3ccccc23)C(=O)CCl)cc1`
A. active

Q. Called result for `Cc1ccc(Cl)cc1NC(=O)Cc1ccc(-n2c(C)nc3cccnc32)cc1`
A. inactive

Consider now this further molecule.
Q. Called result for `CCC(CC)c1nn2cc(-c3ccccc3)nc2s1`
A. inactive

====

# experimental-system: DNA polymerase eta (Homo sapiens)
# protocol-summary: qHTS for Inhibitors of Polymerase Eta
# condition-summary: recombinant Pol eta, fluorescent DNA replication assay; series mostly up to 114 µM
# Description: The Y-family of DNA polymerases, such as Pol eta, are specifically involved in DNA repair. Pol eta copies undamaged DNA with a lower fidelity than other DNA-directed polymerases. However, it accurately replicates UV-damaged DNA; when thymine dimers are present, this polymerase inserts the complementary nucleotides in the newly synthesized DNA, thereby bypassing the lesion and suppressing the mutagenic effect of UV-induced DNA damage. […]
Out of some 390,000 compounds screened, about 4,700 (1.2%) were called active. Inconclusive results (about 4%) are left out. Calls follow the shape of the dose curve; as a rule, active = well fitted inhibition curve with a large enough effect; inconclusive = small, poorly fitted or top-dose-only effect, or another doubt; inactive = no such curve, though single readings can be large or run the other way. Only a selection was taken, and actives are over-represented in it overall.
Respond with a class label; see TRUE for active, FALSE for inactive

Below are worked cases with known answers.
Q. Called result for `COc1ccccc1CNC(=O)c1ccc(-n2c(C)cc3c2CCCC3)cc1`
A. FALSE

Q. Called result for O=C(N/N=C/c1ccc(OCC2COCCO2)cc1)c1ccc(Br)cc1 (stereo not given)
A. FALSE

Q. Called result for `CN1CCN(Cc2nc3cc(NC(=O)COc4ccc([N+](=O)[O-])cc4)ccc3n2C)CC1`
A. FALSE

Q. Called result for `COc1ccc(NC(=O)CCc2nnc3n(CC(C)C)c(=O)c4ccccc4n23)cc1OC`
A. FALSE

Q. Called result for `ON=C1/C(=N\O)CC2(C/C1=N/O)OCCO2`
A. TRUE

---
Q. Called result for `Cc1ccc(Cc2c(C)nc3nc(SCC(=O)NCCN4CCOCC4)nn3c2C)cc1`
A. FALSE

Q. Called result for `COc1cc(NC(=O)CSc2nc3nc(C)c(Cc4ccc(C)cc4)c(C)n3n2)cc(OC)c1OC`
A. FALSE

Q. Called result for `O=C(COc1ccc(/C=N/NC(=O)c2ccc(O)cc2)cc1)Nc1ccc([N+](=O)[O-])cc1`
A. TRUE

Q. Called result for `Cc1ccc(Cl)cc1-n1ncc2c(N3CCC(C(N)=O)CC3)ncnc21`
A. FALSE

Q. Called result for COc1ccccc1CNC(=O)c1ccc(NC(=O)N2CC(C)Sc3ccccc32)cc1 (stereo not given)
A. FALSE

====

# experimental-system: DNA polymerase eta (Homo sapiens)
# protocol-summary: qHTS for Inhibitors of Polymerase Eta
# condition-summary: recombinant Pol eta, fluorescent DNA replication assay; series mostly up to 114 µM
Screen size: about 390,000 compounds; about 4,700 (1.2%) were called active. Inconclusive results (about 4%) are left out. Calls come from the whole dose curve; as a rule, active = well fitted inhibition curve with a large enough effect; inconclusive = small, poorly fitted or top-dose-only effect, or another doubt; inactive = no such curve, though single readings can be large or run the other way. Many of the other results were omitted from the sample, so actives are more common in it than they were.
Respond with a class label; see True (active), False (inactive)

Below are worked cases with known answers.
Q. Called result for `Cc1ccc(Cn2c(C)nc3c(c2=O)c2nc4ccccc4nc2n3Cc2ccco2)cc1`
A. True

Q. Called result for COc1ccc(C2=CC(c3ccccc3Cl)n3nc(-c4ccc(Cl)cc4)nc3N2)cc1 (stereo not given)
A. False

Q. Called result for `COc1ccccc1Nc1c2c(nc3ccc(NC(=O)/C=C/c4cc(OC)c(OC)c(OC)c4)cc13)CCCC2`
A. False

Q. Called result for `Cc1ccc(C(=O)Oc2coc(CSc3nnc(NC(=O)c4cccs4)s3)cc2=O)cc1C`
A. True

Q. Called result for `Cc1ccc2nc(COc3ccc(NC(=O)COc4ccccc4F)cc3)cc(=O)n2c1`
A. False

Q. Called result for `Cc1ccc(Cn2c(=O)n(Cc3nc(-c4ccccc4)no3)c(=O)c3cc4c(cc32)OCO4)cc1`
A. False

---
Q. Called result for CCN1CCN(C(c2ccc(C)cc2)c2c(O)cc(C)n(Cc3ccco3)c2=O)CC1 (stereo not given)
A. False

Q. Called result for NC1=NC(c2cc(F)cc(F)c2)n2c(nc3ccccc32)N1 (stereo not given)
A. False

Q. Called result for `COC(=O)c1ccc(NC(=O)c2cccc3c2C(=O)N(C2CCCCC2)C3)cc1`
A. False

Q. Called result for `O=C(O)c1cccc2c1C(=O)N(C1CCCCC1)C2`
A. True

These entries and their values trace back to PubChem BioAssay AID588591.
